system: Haemophilus influenzae; test: In vitro antibacterial activity against DILL strain of Haemophilus influenzae.; assay type: functional
assay-readout: MIC (µg/mL)

A: CC[C@H]1OC(=O)/C(C)=C/[C@H](C)[C@@H](O[C@@H]2O[C@H](C)C[C@H](N(C)C)[C@H]2O)[C@@](C)(OC)C[C@@H](C)C(=O)[C@H](C)[C@H]2N(CCc3cccs3)C(=O)O[C@]12C
B: CC[C@H]1OC(=O)/C(C)=C/[C@H](C)[C@@H](O[C@@H]2O[C@H](C)C[C@H](N(C)C)[C@H]2O)[C@@](C)(OC)C[C@@H](C)C(=O)[C@H](C)[C@H]2N(CCCOc3cccc4cccnc34)C(=O)O[C@]12C
Between A and B , whose measured MIC reads higher? Response format: the label of the selected entry.
A

* * *

tested on: Staphylococcus aureus; assay: In vivo antibacterial activity in mice infected with Staphylococcus aureus NCTC-10649M.; type: functional
assay-readout: MIC (µg/mL)

# annotated cases, reported MIC shown
CC[C@H]1OC(=O)/C(C)=C/[C@H](C)[C@@H](O[C@@H]2O[C@H](C)C[C@H](N(C)C)[C@H]2O)[C@@](C)(OC)C[C@@H](C)C2=NCCN3C(=O)O[C@@]1(C)[C@H]3[C@H]2C; 0.05
CC[C@H]1OC(=O)[C@H](C)[C@@H](O[C@H]2C[C@@](C)(OC)[C@@H](O)[C@H](C)O2)[C@H](C)[C@@H](O[C@@H]2O[C@H](C)C[C@H](N(C)C)[C@H]2O)[C@](C)(OC)C[C@@H](C)C(=O)[C@H](C)[C@@H](O)[C@]1(C)O; 0.03
CC[C@H]1OC(=O)/C(C)=C/[C@H](C)[C@@H](O[C@@H]2O[C@H](C)C[C@H](N(C)C)[C@H]2O)[C@@](C)(OC)C[C@@H](C)C(=O)[C@H](C)[C@H]2N(CCc3cccc(OC)c3)C(=O)O[C@]12C; 0.39
CC[C@H]1OC(=O)/C(C)=C/[C@H](C)[C@@H](O[C@@H]2O[C@H](C)C[C@H](N(C)C)[C@H]2O)[C@@](C)(OC)C[C@@H](C)C(=O)[C@H](C)[C@H]2N(CCc3ccc(F)cc3)C(=O)O[C@]12C; 0.39
CC[C@H]1OC(=O)/C(C)=C/[C@H](C)[C@@H](O[C@@H]2O[C@H](C)C[C@H](N(C)C)[C@H]2O)[C@@](C)(OC)C[C@@H](C)C(=O)[C@H](C)[C@H]2N(CCc3ccc([N+](=O)[O-])cc3)C(=O)O[C@]12C; 0.1

A: CC[C@H]1OC(=O)/C(C)=C/[C@H](C)[C@@H](O[C@@H]2O[C@H](C)C[C@H](N(C)C)[C@H]2O)[C@@](C)(OC)C[C@@H](C)C(=O)[C@H](C)[C@H]2N(CCc3ccc(Cl)c(Cl)c3)C(=O)O[C@]12C
B: CC[C@H]1OC(=O)/C(C)=C/[C@H](C)[C@@H](O[C@@H]2O[C@H](C)C[C@H](N(C)C)[C@H]2O)[C@@](C)(OC)C[C@@H](C)C(=O)[C@H](C)[C@H]2NC(=O)O[C@@]21C (stereo in doubt; 6)
Smaller MIC value? Options are A and B Response format: the label of the selected entry.
A
(A: 0.39 µg/mL, B: 1.56 µg/mL)

Ref: ChEMBL document CHEMBL1131215
